Biological target: UniProt:P0DTD1
Experiment: biochemical
Assay type: biochemical
Details: sheet LOPAC_screen_w_protease; primary screen at 5 µM; replicate 2
readout.kind: Replicate_2 (LOPAC screen with protease)
Respond with the number and no other words.

compound="NC(=O)CI [Iodoacetamide]" recorded_value=18.7088
compound="Nc1c[n+](N2CCOCC2)no1.[Cl-] [3-Morpholinosydnonimine hydrochloride]" recorded_value=21.5874
compound="COc1ccc2c(c1)CC[C@@H]1[C@@H]2CC[C@]2(C)[C@@H](NCCCCCCN3C(=O)C=CC3=O)CC[C@@H]12 [U-73122, reference compound]" recorded_value=87.7878
compound="Br.Br.NC(N)=NCCSSCCN=C(N)N [Guanidinoethyl disulfide dihydrobromide]" recorded_value=37.2188
compound=Br.CCCN1CCc2cc(O)cc3c2[C@H]1Cc1ccc(O)c(O)c1-3 recorded_value=95.1824

The compound NC(Cc1cc(O)c(O)cc1O)C(=O)O (racemic) [6-Hydroxy-dl-DOPA, reference compound] , when measured on UniProt:P0DTD1, yielded Replicate_2 (LOPAC screen with protease) of 62.9123

The compound `Cc1ccc(S(=O)(=O)N[C@@H](Cc2ccccc2)C(=O)CCl)cc1` , when measured on UniProt:P0DTD1, yielded Replicate_2 (LOPAC screen with protease) of 61.3507

The compound Cl.Cl.Oc1ccc2c3c1O[C@H]1c4[nH]c5c(c4C[C@@]4(O)[C@@H](C2)N(CC2CC2)CC[C@]314)C[C@@]1(O)[C@H]2Cc3ccc(O)c4c3[C@@]1(CCN2CC1CC1)[C@H]5O4 [nor-Binaltorphimine dihydrochloride] , when measured on UniProt:P0DTD1, yielded Replicate_2 (LOPAC screen with protease) of 33.9521

Reference source: paper PMC7587356
